procedure-text: Stability of Src peptide substrate 1 in prostate cell lysates
Format: in vitro ADME, human
condition-context: human; WPE1-NB11 cell lysate, M-PER lysis buffer, no ATP/Mg2+, 1 h; read-out: % Remaining Parent
Procedure: Peptides commonly suffer protease-catalyzed degradation in cells as well as in cell lysates. Consequently, prior to examining Src kinase-catalyzed phosphorylation of peptide 1 with lysates, we monitored the stability of the peptide as a function of time. […] Since the phosphorylation rate is measured within 10 min of incubation (Fig. S1), the peptide is sufficiently stable for our needs. […]
Where a SMILES comes first, the peptide text is derived from it. [ ]: non-standard residue; d: D form. The star is where a group is joined. 5FAM = O=C1OC2(c3ccc(O)cc3Oc3cc(O)ccc32)c2ccc(C(=O)*)cc21; Orn = NCCC[C@H](N)C(=O)O
measured-attribute: remaining at 1 h

# input Using the record for CC[C@H](C)[C@H](NC(=O)[C@H](CCC(=O)O)NC(=O)[C@H](CCC(=O)O)NC(=O)[C@H](CCC(=O)O)NC(=O)[C@H](CCCNC(C)=O)NC(=O)c1ccc2c(c1)C(=O)OC21c2ccc(O)cc2Oc2cc(O)ccc21)C(=O)N[C@@H](Cc1ccc(O)cc1)C(=O)NCC(=O)N[C@@H](CCC(=O)O)C(=O)N[C@@H](Cc1ccccc1)C(=O)N[C@@H](CCCNC(C)=O)C(N)=O [peptide 1] (5FAM-[Orn](Ac)EEEIYGEF[Orn](Ac)-NH2) , report its remaining at 1 h.
# output 89.8%
